Assay: yeast display, Sf9 membrane polyspecificity reagent, FACS + sequencing; frameworks hold sequencing errors
Measured attribute: polyreactivity (PSR sort gate)

Some entries whose results are on file:
QVQLVESGGGLVQAGGSLRLSCAASGYIFDGNAMGWYRQAPGKERELVASISSGTSTYYADSVKGRFTISRDNAKNTVYLQMNSLKPEDTAVYYCAGDYKWSGFGYWGQGTQVTVSS    low polyreactivity
QVQLVESGGGLVQAGGSLRLSCAASGRIFYTYAMGWYRQAPGKERELVAAIRWSSGSTFYADSVKGRFTISRDNAKNSVYLQMNSLKPEDTAVYYCATEYYPQYQSTGWYDYWGQGTQVTVSS    low polyreactivity
QVQLVESGGGLVQAGGSLRISCDASGSTFYPYAMGWYRQAPGKERELVAAISSGGSTSYADSVKGRFTISRDNAKNTVYLQMNSLKPEDTAVYYCNASSPGAVPVYDYDYWGQGTQVTVSS    low polyreactivity
QVQLVESGGGLVQAGGSLRLSCAASGSTFYPYAMGWYRQAPGNERELVAALDRGGSTSYADSVKGRFTISRDNAKNTVYLQMIRLKPEDTAVYYCAVARGGRRKYEYWGQGTQVTVSS    low polyreactivity

Bench note: what polyreactivity (PSR sort gate) did `QVQLVESGGGLVQAGGSLRLSCAASGFTFWTYAMGWYRQAPGKERELVATISKRGGSTYYADSVKGRFTISRDNAMNTVYLQMNSLKPEVTAVYYCNRPSYGKEMDYWGQGTQVTVSS` show?
high polyreactivity

Bench note: what polyreactivity (PSR sort gate) did `QVQLVESGGGLVQAGGSLRLSCAASGSTLYTYAMRWYRQAPGKERELVAAIRLSGGRTYYADSVKGRFTISRDNAKNTVYLQMYSLKPEDTAVYDFAVDWSYSRYDYWGQGTQVTVSS` show?
high polyreactivity

Bench note: what polyreactivity (PSR sort gate) did `QVQLVESGGGLVQAGGSLRLSCAASGLIFPRYDIGWYRQAPGKESEFVAAITSGGGTYYADSVKGRFTLSRDNAKNTVYLQMNSVKPEDTAVYYCARDHYRHSRYFYRYDYWGQGTQVTVSS` show?
low polyreactivity

Bench note: what polyreactivity (PSR sort gate) did `QVQLVESGGGLVQAGGSLRLSCAASGSIFSTYTMGWYRQAPGKERELVAGISKSGGSTYYADSVKGRFTISRDNAKNTVYLQMNSLKPEDTAVYYCAAPVPKTDKLLRMYYWGQGTQVTVSS` show?
high polyreactivity

Bench note: what polyreactivity (PSR sort gate) did `QFQLVESGGGLVQAGGSLRLSCAASGYTFGQYDMGWYRQAPGKERELVAAISTGGVSTYYADSVKGRFTISRDNAKNTVYLQMNSLKPEDTAVYYCATTPYVRYDYWGQGTQVTVSS` show?
low polyreactivity

Bench note: what polyreactivity (PSR sort gate) did `QVQLVESGGGLVQAGGSLRLSCAASGNTLGYYAMGWYRQAAGKARELVATICDDGTTYYADSVKGRFTISRDNAMNTVYLQMNSLSPEETAVYYCASVGSAQYSMDYWGDGTQVTVSS` show?
low polyreactivity

Bench note: what polyreactivity (PSR sort gate) did `QVQLVESGGGLVQAGGSLRLSCAASGRIFWNYAMGWYSQAPGKERELVASINWSGGSTYYADSVKGRFTISRDNAKNTVYLQMNSLKPEDTAVYYCNKDGRVYLDHDYWGQGTQVTVSS` show?
low polyreactivity
